# Test system: Nakaseomyces glabratus
# procedureText: Antifungal activity against Candida glabrata ATCC 3916 after 48 hrs by macro tube dilution method
# Format: functional
# experimentalParameters: ATCC 3916, 48 h
readoutLabel: MIC (µg/mL)
Numbers only, in µg/mL.

The cases that follow already have their MIC on record.
[[record]]
molecule = "Cc1ccc(/C=C2\\CCC(CN3CCOCC3)C2=O)cc1 (stereo unspecified)"
endpointunit = "µg/mL"
testvalue = 3.12

[[record]]
molecule = "COc1cc(/C=C2\\CCC(CN3CCCCC3)C2=O)cc(OC)c1OC (stereo unspecified)"
endpointunit = "µg/mL"
testvalue = 100

[[record]]
molecule = "O=C1/C(=C/c2ccccc2)CCC1CN1CCc2ccccc2C1 (stereo unspecified)"
endpointunit = "µg/mL"
testvalue = 6.25


Each molecule below has a recorded value; state its MIC.
1. COc1cccc(/C=C2\CCC(CN3CCCCC3)C2=O)c1 (stereo unspecified)
2. O=C1/C(=C/c2ccccc2)CCCCC1CN1CCCCC1 (stereo unspecified)

*A*
1: 12.5; 2: 100

*Q* Fill in MIC for record COc1ccc(/C=C2\CCCC(CN3CCOCC3)C2=O)cc1OC (stereo unspecified)
*A* 100
